FYI, the data here is from patent US5049549A.

Reported IC50 values for a set of molecules
# Tested on: HT 29 cells
# test description: Proliferation test (MTT reduction), HT29
# Assay type: cell-based
# assay context: Homo sapiens, HT-29; HT29, 72 h; read-out: IC50 MTT assay HT29

molecule	IC50, µg/mL
CC[C@@]1(O)C[C@H](O[C@H]2C[C@H](N)[C@H](N)[C@H](C)O2)c2c(O)c3c(c(O)c2[C@H]1O)C(=O)c1cccc(OC)c1C3=O [compound 10]	0.033
CC[C@@]1(O)C[C@H](O[C@H]2C[C@H](O)[C@H](N)[C@H](C)O2)c2c(O)c3c(c(O)c2[C@H]1O)C(=O)c1cccc(OC)c1C3=O [compound 8]	0.043
CC[C@@]1(O)C[C@H](O[C@H]2C[C@H](N=[N+]=[N-])[C@H](NC(=O)C(F)(F)F)[C@H](C)O2)c2c(O)c3c(c(O)c2[C@H]1O)C(=O)c1cccc(O)c1C3=O [compound 13]	0.2
CC[C@@]1(O)C[C@H](O[C@H]2C[C@H](N)[C@H](N)[C@H](C)O2)c2c(O)c3c(c(O)c2[C@H]1O)C(=O)c1cccc(O)c1C3=O [compound 16]	0.069
CC[C@@]1(O)C[C@H](O[C@H]2C[C@H](N)[C@@H](NC(=O)C(F)(F)F)[C@H](C)O2)c2c(O)c3c(c(O)c2[C@H]1O)C(=O)c1cccc(O)c1C3=O [compound 12]	0.022
CC[C@@]1(O)C[C@H](O[C@H]2C[C@H](NC(=O)C(F)(F)F)[C@H](NC(=O)C(F)(F)F)[C@H](C)O2)c2c(O)c3c(c(O)c2[C@H]1O)C(=O)c1cccc(O)c1C3=O [compound 15]	0.1

----------
# Test system: L1210 cells
# test description: Proliferation test (MTT reduction), L1210
# Assay type: cell-based
# assay context: Mus musculus, L1210, 72 h; read-out: IC50 MTT assay L1210
# Protocol: L1210, A 549 or HT 29 in the exponential growth phase are incubated in a cell density of 5×10^3 cells/ml in RPMI 1640 medium in a 96-well microtest plate with various concentrations of the test substance at 37° C., 5% CO2 and 95% relative humidity for 72 h. […] The insoluble dyestuff is dissolved by addition of 100 µl of DMSO, and the extinction of the solution produced in this way is subsequently measured at a wavelength of 492 nm for each well in a 340 CC Multiscan Photometer from Flow. […]
experimental endpoint: IC50

molecule	endpoint result
CC[C@@]1(O)C[C@H](O[C@H]2C[C@H](N=[N+]=[N-])[C@H](NC(=O)C(F)(F)F)[C@H](C)O2)c2c(O)c3c(c(O)c2[C@H]1O)C(=O)c1cccc(O)c1C3=O [compound 13]	0.1 µg/mL
CC[C@@]1(O)C[C@H](O[C@H]2C[C@H](O)[C@H](N)[C@H](C)O2)c2c(O)c3c(c(O)c2[C@H]1O)C(=O)c1cccc(OC)c1C3=O [compound 8]	0.043 µg/mL
CC[C@@]1(O)C[C@H](O[C@H]2C[C@H](N)[C@H](N)[C@H](C)O2)c2c(O)c3c(c(O)c2[C@H]1O)C(=O)c1cccc(OC)c1C3=O [compound 10]	0.039 µg/mL
CC[C@@]1(O)C[C@H](O[C@H]2C[C@H](N)[C@@H](NC(=O)C(F)(F)F)[C@H](C)O2)c2c(O)c3c(c(O)c2[C@H]1O)C(=O)c1cccc(O)c1C3=O [compound 12]	0.03 µg/mL
CC[C@@]1(O)C[C@H](O[C@H]2C[C@H](NC(=O)C(F)(F)F)[C@H](NC(=O)C(F)(F)F)[C@H](C)O2)c2c(O)c3c(c(O)c2[C@H]1O)C(=O)c1cccc(O)c1C3=O [compound 15]	0.037 µg/mL
CC[C@@]1(O)C[C@H](O[C@H]2C[C@H](N)[C@H](N)[C@H](C)O2)c2c(O)c3c(c(O)c2[C@H]1O)C(=O)c1cccc(O)c1C3=O [compound 16]	0.01 µg/mL
